Origin of the recorded values: patent US20120172285A1

Molecular target: recombinant BCL-XLΔC (UniProt Q07817)
Sequence (Q07817 1-212, stated change not applied): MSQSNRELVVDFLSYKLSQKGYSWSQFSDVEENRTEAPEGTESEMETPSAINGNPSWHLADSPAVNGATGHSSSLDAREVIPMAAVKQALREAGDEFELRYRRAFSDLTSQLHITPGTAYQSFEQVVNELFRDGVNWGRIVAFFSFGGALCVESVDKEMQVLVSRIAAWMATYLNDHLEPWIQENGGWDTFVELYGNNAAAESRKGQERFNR
Experiment: fluorescence polarization (FPA), FITC-SAHB with recombinant anti-apoptotic protein [lower table]
Bridges are numbered along the chain shown (N, C = ends). Where no end group is shown, it is not given here. [ ]: non-standard residue; d: D form. The star is where a group is joined. FITC = O=C1OC2(c3ccc(O)cc3Oc3cc(O)ccc32)c2ccc(NC(=S)*)cc21; S5 = C=CCCC[C@](C)(N)C(=O)O; Nle = CCCC[C@H](N)C(=O)O
quantityKind: Kd
Remember to quote the unit after the number.

Tell me the measured Kd of {FITC}-DIIRNIARHLA[S5]VGD[S5][Nle]DRSIRR (staple 12-16, domain: BH3) [BID SAHB] , please.
28 nM

Could you do the same for {FITC}-ASTKKLSESLK[S5]IGD[S5]LDSN (staple 12-16, domain: BH3) [BAX SAHB] , please?
15 nM

Could you do the same for {FITC}-QWAREIGAQLR[S5][Nle]AD[S5]LNAQY (staple 12-16, domain: BH3) [PUMA SAHB] , please?
9 nM

Could you do the same for {FITC}-QVGRQLA[S5]IGD[S5]INRRYD (staple 8-12, also called FITC-BAK SAHB; BAK BH3 helix) [BAK SAHB] , please?
15 nM
